assayed.target: NAMPT (human, recombinant, C-terminally His-tagged) (Homo sapiens)
assay.remarks: Time-Resolved Fluorescence Resonance Energy Transfer (TR-FRET) Binding Assay of NAMPT
measurement.parameters: without substrates; 6.8 nM NAMPT, 200 nM probe, 3 hours equilibration
measurement.label: log10(IC50) (log10 of the value in nM)
The figures below represent log10 of IC50, where IC50 is stated in nM.

{"molecule": "CC(C)(C(=O)N1CCC(c2ccc(C(=O)NCc3ccn4ccnc4c3)cc2)C1)c1ccccc1 (stereo not drawn)", "log10(IC50)": 1.33}

## Task So what's the measured log10(IC50) for this one? `CC(C)OCCNC(=O)N(C[C@H]1CCCO1)c1ncc(C(=O)NCc2ccc3nccn3c2)s1`
## Result 2.29

## Task So what's the measured log10(IC50) for this one? CC(C)C[C@@H](NC(=O)CC1CCOC1)c1ccc(C(=O)NCc2ccn3ccnc3c2)s1 (stereo partly drawn)
## Result 2.98

====

assayed.target: NAMPT (human, recombinant, C-terminally His-tagged) (Homo sapiens, UniProt P43490)
Sequence (P43490 whole entry): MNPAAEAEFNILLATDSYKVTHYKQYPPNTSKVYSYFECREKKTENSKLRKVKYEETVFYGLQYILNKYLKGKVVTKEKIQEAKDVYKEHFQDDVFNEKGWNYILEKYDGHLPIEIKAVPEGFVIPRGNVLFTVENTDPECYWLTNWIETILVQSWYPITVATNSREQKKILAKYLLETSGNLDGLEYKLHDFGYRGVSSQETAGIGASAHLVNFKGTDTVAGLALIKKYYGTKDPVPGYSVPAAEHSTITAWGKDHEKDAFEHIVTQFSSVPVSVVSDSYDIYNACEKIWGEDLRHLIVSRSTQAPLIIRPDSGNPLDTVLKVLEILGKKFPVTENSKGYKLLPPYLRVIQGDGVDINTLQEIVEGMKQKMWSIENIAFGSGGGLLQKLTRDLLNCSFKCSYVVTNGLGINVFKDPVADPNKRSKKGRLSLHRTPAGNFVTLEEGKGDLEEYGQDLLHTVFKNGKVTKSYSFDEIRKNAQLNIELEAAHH
assay.remarks: Time-Resolved Fluorescence Resonance Energy Transfer (TR-FRET) Binding Assay of NAMPT
measurement.parameters: without substrates; 6.8 nM NAMPT, 200 nM probe, 3 hours equilibration
The entries below are paired with their reported IC50.
// units = nM; emit number, no label

Reference set (5 entries):
{"compound": "CC1(Cn2cc(-c3ccc(C(=O)NCc4ccn5ccnc5c4)s3)cn2)CCNCC1", "assayed.target": "NAMPT (human, recombinant, C-terminally His-tagged) (Homo sapiens, UniProt P43490)", "IC50 / nM": 21.7}
{"compound": "CC(C)(O)C(=O)N1CC=C(c2ccc(C(=O)NCc3ccc4nccn4c3)cc2)CC1", "assayed.target": "NAMPT (human, recombinant, C-terminally His-tagged) (Homo sapiens, UniProt P43490)", "IC50 / nM": 174}
{"compound": "CC(C)(O)C(=O)N1CCC(Oc2ccc(C(=O)NCc3ccn4ccnc4c3)cc2)CC1", "assayed.target": "NAMPT (human, recombinant, C-terminally His-tagged) (Homo sapiens, UniProt P43490)", "IC50 / nM": 6840}
{"compound": "O=C(Nc1ccc(C(=O)Nc2ccccc2)cc1)Nc1ccc2nccn2c1", "assayed.target": "NAMPT (human, recombinant, C-terminally His-tagged) (Homo sapiens, UniProt P43490)", "IC50 / nM": 2680}
{"compound": "COCCC(=O)N(Cc1ccc(C#N)cc1)c1ncc(C(=O)NCc2ccc3nccn3c2)s1", "assayed.target": "NAMPT (human, recombinant, C-terminally His-tagged) (Homo sapiens, UniProt P43490)", "IC50 / nM": 158}

## Task Give NAMPT (human, recombinant, C-terminally His-tagged) (Homo sapiens, UniProt P43490) IC50 for `O=C(NCc1ccn2ccnc2c1)c1cnc(N2CCN(C(=O)c3ccccc3)CC2)s1`
## Result 831

## Task Give NAMPT (human, recombinant, C-terminally His-tagged) (Homo sapiens, UniProt P43490) IC50 for `CC1(C(=O)N2CCC(c3ccc(C(=O)NCc4ccn5ccnc5c4)cc3)CC2)CC1`
## Result 275

## Task Give NAMPT (human, recombinant, C-terminally His-tagged) (Homo sapiens, UniProt P43490) IC50 for `CC(C)(C)OC(=O)N1CC(Oc2ccc(C(=O)NCc3ccn4ccnc4c3)cc2)C1`
## Result 1980

## Task Give NAMPT (human, recombinant, C-terminally His-tagged) (Homo sapiens, UniProt P43490) IC50 for O=C(CC1CCOC1)NC1(c2ccc(C(=O)NCc3ccn4ccnc4c3)s2)COC1 (stereo not drawn)
## Result 2350

## Task Give NAMPT (human, recombinant, C-terminally His-tagged) (Homo sapiens, UniProt P43490) IC50 for `O=C(NCc1ccn2ccnc2c1)c1ccc(C2CN(C(=O)c3cnccn3)C2)cc1`
## Result 462

## Task Give NAMPT (human, recombinant, C-terminally His-tagged) (Homo sapiens, UniProt P43490) IC50 for `CC(C)(O)CC(=O)N1CCC(c2ccc(NC(=O)NCc3ccn4ccnc4c3)cc2)CC1`
## Result 113

## Task Give NAMPT (human, recombinant, C-terminally His-tagged) (Homo sapiens, UniProt P43490) IC50 for `CC(C)(C)CC(=O)N1CC(c2ccc(C(=O)NCc3ccn4ccnc4c3)cc2)C1`
## Result 535

## Task Give NAMPT (human, recombinant, C-terminally His-tagged) (Homo sapiens, UniProt P43490) IC50 for `CCCNC(=O)c1ccc(NC(=O)Nc2ccc3nccn3c2)cc1`
## Result 2960

## Task Give NAMPT (human, recombinant, C-terminally His-tagged) (Homo sapiens, UniProt P43490) IC50 for Cc1ccc(C(=O)N2CCC(c3ccc(C(=O)NCc4ccn5ccnc5c4)s3)C2)cc1 (stereo not drawn)
## Result 23.6

## Task Give NAMPT (human, recombinant, C-terminally His-tagged) (Homo sapiens, UniProt P43490) IC50 for O=C(NCc1ccn2ccnc2c1)c1ccc(C2CCN(C(=O)[C@H]3CCCO3)C2)cc1 (stereo partly drawn)
## Result 3040

## Task Give NAMPT (human, recombinant, C-terminally His-tagged) (Homo sapiens, UniProt P43490) IC50 for `O=C(NCc1ccn2ccnc2c1)c1ccc(-c2cnn(C[C@H]3CCCO3)c2)o1`
## Result 63.3
